assay: Kinetic solubility of the compound at pH 7 with […] DMSO; assay type: physicochemical; settings: buffer, read-out: Kinetic_solubility
Assay Metric: solubility kinetic

>>> measured_value("CCCCCCc1nc2cc(/C=C/C(=O)NO)ccc2n1CCN(C)C.Cl.Cl")
"> 200 µM"
>>> measured_value("O=C(/C=C/c1ccc2c(c1)nc(CCc1ccccc1)n2CCN1CCCC1)NO")
"> 200 µM"

Now let's try a different one.
input: Return reported solubility kinetic. Input compound: Cl.O=C(/C=C/c1ccc2c(c1)nc(CCc1ccccc1)n2CCN1CCCC1)NO
output: > 200 µM

====

target: Cytochrome P450 3A4 (Homo sapiens); test: Inhibition of CYP3A4 in human liver microsomes
Sequence (P08684 whole entry): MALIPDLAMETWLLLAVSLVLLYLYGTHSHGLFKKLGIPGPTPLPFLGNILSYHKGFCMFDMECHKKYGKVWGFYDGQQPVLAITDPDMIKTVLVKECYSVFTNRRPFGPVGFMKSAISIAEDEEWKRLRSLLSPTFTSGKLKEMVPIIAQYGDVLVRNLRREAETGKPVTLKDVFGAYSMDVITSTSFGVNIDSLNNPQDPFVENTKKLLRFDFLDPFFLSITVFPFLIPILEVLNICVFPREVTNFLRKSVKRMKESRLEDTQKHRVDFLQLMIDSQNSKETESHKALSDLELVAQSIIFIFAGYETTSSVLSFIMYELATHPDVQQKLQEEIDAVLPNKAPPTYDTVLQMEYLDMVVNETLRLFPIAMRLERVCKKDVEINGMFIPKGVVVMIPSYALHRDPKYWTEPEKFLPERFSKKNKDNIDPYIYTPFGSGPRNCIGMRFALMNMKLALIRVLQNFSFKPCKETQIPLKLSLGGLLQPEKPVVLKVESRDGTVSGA
pIC50: −log10 of the molar value.
Assay Metric: pIC50

>>> measured_value("CN(C)CC(C)(C)Cn1c(CC(C)(C)C)nc2cc(/C=C/C(=O)NO)ccc21")
"< 4.60"

Now let's try a different one.
input: Return reported pIC50. Input compound: CCCCCCc1nc2cc(/C=C/C(=O)NO)ccc2n1CCN(C)C
output: < 4.60

====

target: Histone deacetylase 1 (Homo sapiens, UniProt Q13547)
Sequence (Q13547 whole entry): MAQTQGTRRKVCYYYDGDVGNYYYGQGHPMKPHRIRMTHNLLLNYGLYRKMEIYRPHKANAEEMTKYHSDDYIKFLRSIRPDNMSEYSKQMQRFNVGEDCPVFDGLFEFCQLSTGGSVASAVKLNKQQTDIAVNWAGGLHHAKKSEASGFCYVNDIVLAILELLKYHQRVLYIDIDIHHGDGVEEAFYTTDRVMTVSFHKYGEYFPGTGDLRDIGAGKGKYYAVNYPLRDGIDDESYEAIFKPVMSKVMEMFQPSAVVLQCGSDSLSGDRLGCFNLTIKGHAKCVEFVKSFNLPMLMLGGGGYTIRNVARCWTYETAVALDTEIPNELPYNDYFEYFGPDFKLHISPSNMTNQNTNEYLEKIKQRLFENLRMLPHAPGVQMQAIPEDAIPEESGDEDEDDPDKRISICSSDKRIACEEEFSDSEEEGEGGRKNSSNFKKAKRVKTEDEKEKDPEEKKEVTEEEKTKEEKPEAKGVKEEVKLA
Could you please mark yes (1) for values of IC50 below 0.04 µM and no (0) for values at or above it?

# example entries with known answers
>>> group("O=C(/C=C/c1ccc2c(c1)nc(CCc1ccccc1)n2CCN1CCCCC1)NO")
"yes (1)"
>>> group("CCCCCc1nc2cc(/C=C/C(=O)NO)ccc2n1CCNCC")
"yes (1)"
>>> group("CCCCc1nc2cc(/C=C/C(=O)NO)ccc2n1CCCNC(C)C")
"no (0)"
>>> group("CCCCc1nc2cc(/C=C/C(=O)NO)ccc2n1CCN(C(C)C)C(C)C")
"no (0)"
>>> group("CCCCCCc1nc2cc(/C=C/C(=O)NO)ccc2n1CCNC(C)C")
"yes (1)"
>>> group("CN(C)CC(C)(C)Cn1c(CCc2ccccc2)nc2cc(/C=C/C(=O)NO)ccc21")
"no (0)"

input: Please determine if CCN(CC)CCn1c(CC(C)C)nc2cc(/C=C/C(=O)NO)ccc21 is below 0.04 µM in terms of IC50.
output: no (0)

input: Please determine if CCCCCCc1nc2cc(/C=C/C(=O)NO)ccc2n1CCN(C)C is below 0.04 µM in terms of IC50.
output: yes (1)

input: Please determine if CC(Cc1nc2cc(/C=C/C(=O)NO)ccc2n1CC(C)(C)CN(C)C)CC(C)(C)C (stereo not given) is below 0.04 µM in terms of IC50.
output: yes (1)

====

assay: Apparent oral clearance in Wistar rat at 10 mg/kg, po; format: ADME, organism-based; design: dose 10 mg/kg, route oral; settings: in vivo
Assay Metric: CL/F (mL/min/kg)
One number for each entry, in mL/min/kg.

input: Return reported CL/F. Input compound: CCCCc1nc2cc(/C=C/C(=O)NO)ccc2n1CCN(CC)CC.Cl.Cl
output: 2550

====

assay: Terminal half life in nude BALB/c mouse at 10 mg/kg, iv; type: ADME, organism-based; parameters: dose 10 mg/kg, route intravenous; conditions: in vivo, read-out: beta t1/2 (converted)
Assay Metric: half-life
// unit must come after the numeric part

input: Return reported half-life. Input compound: CCCCc1nc2cc(/C=C/C(=O)NO)ccc2n1CCN(CC)CC.Cl.Cl
output: 2.26 h

====

test: Terminal half life in nude BALB/c mouse at 50 mg/kg, po; type: ADME, organism-based; set-up: dose 50 mg/kg, route oral; conditions: in vivo, read-out: beta t1/2 (converted)
Assay Metric: half-life (h)
Numbers only, in h.

input: Return reported half-life. Input compound: CCCCc1nc2cc(/C=C/C(=O)NO)ccc2n1CCN(CC)CC.Cl.Cl
output: 2.44

====

assay: Half life in dog liver microsomes; format: ADME, Canis lupus familiaris, Microsome
Assay Metric: half-life (min)
One number for each entry, in min.

>>> measured_value("O=C(/C=C/c1ccc2c(c1)nc(CCc1ccccc1)n2CCN1CCCC1)NO")
18
>>> measured_value("CCCCCCc1nc2cc(/C=C/C(=O)NO)ccc2n1CCN(C)C.Cl.Cl")
10
>>> measured_value("Cl.O=C(/C=C/c1ccc2c(c1)nc(CCc1ccccc1)n2CCN1CCCC1)NO")
18

Now let's try a different one.
input: Return reported half-life. Input molecule: CCCCCCc1nc2cc(/C=C/C(=O)NO)ccc2n1CCNCC.Cl.Cl
output: 48

====

target: Histone deacetylase 4 (Homo sapiens)
Sequence (P56524 whole entry): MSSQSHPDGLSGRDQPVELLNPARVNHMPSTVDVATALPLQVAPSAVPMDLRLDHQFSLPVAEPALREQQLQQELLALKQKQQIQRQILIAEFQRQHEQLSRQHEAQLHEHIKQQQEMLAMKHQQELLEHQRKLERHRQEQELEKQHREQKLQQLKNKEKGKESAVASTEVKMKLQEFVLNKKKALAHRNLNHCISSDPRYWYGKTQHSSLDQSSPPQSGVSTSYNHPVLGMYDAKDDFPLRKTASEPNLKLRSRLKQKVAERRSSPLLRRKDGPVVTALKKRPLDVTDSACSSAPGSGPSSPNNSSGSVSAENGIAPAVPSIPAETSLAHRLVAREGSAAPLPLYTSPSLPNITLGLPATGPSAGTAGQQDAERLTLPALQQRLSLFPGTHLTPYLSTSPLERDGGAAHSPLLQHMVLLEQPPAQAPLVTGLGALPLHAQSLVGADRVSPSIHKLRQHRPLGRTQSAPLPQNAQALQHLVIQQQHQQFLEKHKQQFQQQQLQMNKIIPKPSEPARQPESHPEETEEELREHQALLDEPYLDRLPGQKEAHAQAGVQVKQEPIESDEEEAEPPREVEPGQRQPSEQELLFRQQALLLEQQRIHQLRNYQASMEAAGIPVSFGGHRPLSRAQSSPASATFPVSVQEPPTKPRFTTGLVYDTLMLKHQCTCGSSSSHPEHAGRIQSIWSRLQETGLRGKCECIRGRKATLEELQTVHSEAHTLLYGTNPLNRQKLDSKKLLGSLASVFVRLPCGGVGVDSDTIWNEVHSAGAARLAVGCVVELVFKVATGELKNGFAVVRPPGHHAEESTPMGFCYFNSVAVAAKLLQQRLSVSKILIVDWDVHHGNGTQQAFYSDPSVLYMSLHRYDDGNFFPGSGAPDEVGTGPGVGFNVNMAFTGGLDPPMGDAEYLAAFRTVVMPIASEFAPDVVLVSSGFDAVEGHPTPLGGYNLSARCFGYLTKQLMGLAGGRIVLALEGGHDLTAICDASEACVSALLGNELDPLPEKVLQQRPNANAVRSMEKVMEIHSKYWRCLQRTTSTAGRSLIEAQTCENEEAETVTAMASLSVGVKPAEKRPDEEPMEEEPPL
Assay Metric: pKi
Answers are plain numbers, as −log10 of the molar value.

>>> measured_value("CN(C)CC(C)(C)Cn1c(CC(C)(C)C)nc2cc(/C=C/C(=O)NO)ccc21")
8.10
>>> measured_value("O=C(/C=C/c1cccc(S(=O)(=O)Nc2ccccc2)c1)NO")
7.82
>>> measured_value("CCCCCCc1nc2cc(/C=C/C(=O)NO)ccc2n1CCN(C)C")
8.28

input: Return reported pKi. Input compound: CCCCCCc1nc2cc(/C=C/C(=O)NO)ccc2n1CCNCC
output: 8.21

====

test system: COLO 205; experiment: Antiproliferative activity against human COLO205 cells after 96 hrs by celltiter 96 assay; type: functional, cell-based; conditions: COLO 205, 96 h
Assay Metric: pIC50
Numbers only, as −log10 of the molar value.

>>> measured_value("O=C(CCCCCCC(=O)Nc1ccccc1)NO")
5.67

Below are some molecules; for each one, tell me its pIC50.
1. CCCCCCc1nc2cc(/C=C/C(=O)NO)ccc2n1CCNC
2. O=C(/C=C/c1ccc2c(c1)nc(CCc1ccccc1)n2CCN1CCCCC1)NO
3. CN(C)CCn1c(C2CC2c2ccccc2)nc2cc(/C=C/C(=O)NO)ccc21 (configuration not stated)
4. CCNCCn1c(CC(C)CC(C)(C)C)nc2cc(/C=C/C(=O)NO)ccc21 (configuration not stated)

output:
1: 6.26; 2: 7.06; 3: 6.16; 4: 6.85

Below are some molecules; for each one, tell me its pIC50.
1. CC(C)c1nc2cc(/C=C/C(=O)NO)ccc2n1CC(C)(C)CN(C)C
2. CCCCCc1nc2cc(/C=C/C(=O)NO)ccc2n1C1CCCN(C)C1 (configuration not stated)
3. CCCCc1nc2cc(/C=C/C(=O)NO)ccc2n1CCN(CC)CC.Cl.Cl

output:
5.76
5.68
6.25

Below are some molecules; for each one, tell me its pIC50.
1. CCCCCc1nc2cc(/C=C/C(=O)NO)ccc2n1CCNC
2. CCCCc1nc2cc(/C=C/C(=O)NO)ccc2n1CCNCC
3. CCN(CC)CCn1c(CC(C)(C)C)nc2cc(/C=C/C(=O)NO)ccc21
4. CCN(CC)CCn1c(C2CC2c2ccccc2)nc2cc(/C=C/C(=O)NO)ccc21 (trans isomer)
5. CCCc1nc2cc(/C=C/C(=O)NO)ccc2n1CCN(CC)CC
6. CCCCc1nc2cc(/C=C/C(=O)NO)ccc2n1CCN(C)C(C)C

output:
1. 6.02
2. 6.06
3. 5.92
4. 6.20
5. 6.01
6. 6.27

Below are some molecules; for each one, tell me its pIC50.
1. CCCCc1nc2cc(/C=C/C(=O)NO)ccc2n1C1CCNC1 (configuration not stated)
2. CCCCc1nc2cc(/C=C/C(=O)NO)ccc2n1C1CCN(C)C1 (configuration not stated)
3. CCN(CC)CCc1nc2cc(/C=C/C(=O)NO)ccc2n1CCC(C)C
4. CC(Cc1nc2cc(/C=C/C(=O)NO)ccc2n1CC(C)(C)CN(C)C)CC(C)(C)C (configuration not stated)
5. CCCCCCc1nc2cc(/C=C/C(=O)NO)ccc2n1C1CCNC1 (configuration not stated)
6. CN(C)CC(C)(C)Cn1c(CCc2ccccc2)nc2cc(/C=C/C(=O)NO)ccc21

output:
4.79
5.96
5.17
6.82
5.84
6.96

Below are some molecules; for each one, tell me its pIC50.
1. CCN(CC)CCn1c(CC(C)C)nc2cc(/C=C/C(=O)NO)ccc21
2. NCCn1c(C2CC2c2ccccc2)nc2cc(/C=C/C(=O)NO)ccc21 (configuration not stated)

output:
[6.09, 5.34]

====

A short record of pKi observed with Histone deacetylase 8 (Homo sapiens, UniProt Q9BY41) follows.
Sequence (Q9BY41 whole entry): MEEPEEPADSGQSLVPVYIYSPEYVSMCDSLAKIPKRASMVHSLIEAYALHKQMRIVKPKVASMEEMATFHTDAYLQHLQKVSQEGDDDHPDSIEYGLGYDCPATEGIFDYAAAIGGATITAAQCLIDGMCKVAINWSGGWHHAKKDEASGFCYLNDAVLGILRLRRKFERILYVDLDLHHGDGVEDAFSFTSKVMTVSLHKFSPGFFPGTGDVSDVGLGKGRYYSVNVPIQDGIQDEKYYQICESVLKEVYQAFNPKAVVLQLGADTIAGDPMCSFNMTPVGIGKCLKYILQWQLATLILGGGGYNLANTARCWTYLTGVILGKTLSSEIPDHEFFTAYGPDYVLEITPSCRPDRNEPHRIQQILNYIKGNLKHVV
Give bare numbers, as −log10 of the molar value.

>>> measured_value("CCCCCCc1nc2cc(/C=C/C(=O)NO)ccc2n1CCN(C)C")
6.87

Below are some compounds; for each one, tell me its pKi.
1. CCCCc1nc2cc(/C=C/C(=O)NO)ccc2n1CCNC(C)C
2. CN(C)CC(C)(C)Cn1c(CC(C)(C)C)nc2cc(/C=C/C(=O)NO)ccc21

output:
[7.11, 7.19]

input: Return reported pKi. Input compound: CCCCCCc1nc2cc(/C=C/C(=O)NO)ccc2n1CCNCC
output: 7.27
